Data origin, for the record: paper PMC7184563

study.system: BCL6 (Homo sapiens)
Assay type: cell-based
assay.setup: SU-DHL-4
metric.name: BCL6 degradation in the IF assay (in words)

- C[C@@H]1C[C@H](C)CN(c2ncc(Cl)c(Nc3ccc4c(c3)n(CCC(C)(C)O)c(=O)n4C)n2)C1 [Compound 24b]: identified as degraders
- C[C@@H]1C[C@H](C)CN(c2cc(Nc3ccc4c(c3)n(CCC(C)(C)O)c(=O)n4C)c(Cl)cn2)C1 [Compound 26b]: identified as degraders

###

Give pIC50 for every item shown.
pIC50: −log10 of the molar value.

Data request: // fetch UniProt P41182 pIC50 for "N#Cc1c(NCc2ccccc2)ccnc1Cl"
Data returned: ~4.00

Data request: // fetch UniProt P41182 pIC50 for "Cn1c(=O)n(C)c2cc(Nc3cc(SCc4ccccc4)ncn3)ccc21"
Data returned: ~4.00
